- Tested on: KRas wild type
- assayDetails: Ras GTP binding domain inhibition assay (Cy3-GTP/Cy5-GTP competition)
- Parameters: species or system human
- setupConditions: 20 μM; with SOS (Table 7A)
measurementLabel: KRas wild type + SOS: % inh.

Here's what some known entries look like.
- compound: "CCn1cc(Nc2nc(-c3ccccn3)nc(O)c2OC)cn1 [drawing 881]"
  resultValue: "B (26-50% inhibition)"
- compound: "Cn1ccc(-c2sc3nc(-c4nccn4C)nc(N[C@H]4C[C@@H](O)C4)c3c2-c2ccccc2)n1 [drawing 908]"
  resultValue: "0 (0% inhibition)"
- compound: "CO[C@H]1CC[C@@H](Nc2nc(-c3nccn3C)nc3sc(-c4ccn(C(C)C)n4)c(-c4ccccc4)c23)C1 [drawing 912]"
  resultValue: "D (76-100% inhibition)"
- compound: "COC1CCN(C(=O)c2sc3nc(-c4nccn4C)nc(N[C@H]4C[C@@H](OC)C4)c3c2-c2ccccc2)C1 (stereo partly shown) [drawing 923]"
  resultValue: "C (51-75% inhibition)"

Give KRas wild type + SOS: % inh. for each listed item.
1. CO[C@H]1C[C@@H](Nc2nc(-c3ncc[nH]3)nc3sc(-c4ccn(C)n4)c(-c4ccccc4)c23)C1 [drawing 910]
2. CN(C)CCOCCNc1nc(-c2nccn2C)nc2sc(-c3ccn(C)n3)c(-c3ccccc3)c12 [drawing 907]
3. Cc1c(-c2ccn(C)n2)sc2nc(-c3nccn3C)nc(NCCCC(=O)N(C)C)c12 [drawing 917]
4. CO[C@H]1CC[C@@H](Nc2nc(-c3nccn3C)nc3sc(-c4cccc5[nH]ncc45)c(-c4ccccc4)c23)C1 [drawing 889]

["A (1-25% inhibition)", "C (51-75% inhibition)", "C (51-75% inhibition)", "D (76-100% inhibition)"]

Would you mind giving KRas wild type + SOS: % inh. for every compound in the list below?
1. COc1c(F)cccc1-c1sc2nc(-c3nccn3C)nc(NC3CCC(OC)C3)c2c1-c1ccccc1 (stereo not shown) [drawing 886]
2. COc1cccc(-c2sc3nc(-c4nccn4C)nc(NC4CCC(OC)C4)c3c2-c2ccccc2)c1F (stereo not shown) [drawing 883]

1: A (1-25% inhibition); 2: D (76-100% inhibition)

Below are some compounds; for each one, tell me its KRas wild type + SOS: % inh..
1. CCOc1cccc(Nc2nc(-c3ccccn3)nc(O)c2OC)c1 [drawing 882]
2. COc1cccc(-c2sc3nc(-c4nc(C)cn4C)nc(N[C@@H]4CC[C@H](OC)C4)c3c2C)c1F [drawing 896]
3. CO[C@H]1C[C@@H](Nc2nc(-c3nccn3C)nc3sc(-c4ccn(C)n4)c(C)c23)C1 [drawing 914]

B (26-50% inhibition)
B (26-50% inhibition)
C (51-75% inhibition)

Each compound below has a recorded value; state its KRas wild type + SOS: % inh..
1. CO[C@H]1C[C@@H](Nc2nc(-c3nccn3C)nc3sccc23)C1 [drawing 903]
2. COc1cccc(-c2sc3nc(-c4nccn4C)nc(N[C@H]4C[C@@H](OC)C4)c3c2-c2ccccc2)c1F [drawing 891]
3. COc1cccc(-c2sc3nc(-c4nccn4C)nc(N[C@@H]4CC[C@H](OC)C4)c3c2-c2ccccc2)c1F [drawing 884]

1. D (76-100% inhibition)
2. D (76-100% inhibition)
3. D (76-100% inhibition)
